- Test system: Rattus norvegicus
- RUN_DESCRIPTION: Antiinflammatory activity against carrageenan-induced paw edema in po dosed Wistar rat at dose equivalent to 2.5 mg/kg ketorolac after 6 hrs
- Type: functional
VALUE_KIND: Activity (%)
One number for each entry, in %.

Reference set (4 entries):
COMPOUND	Activity (%)
CCOC(=O)C(C)NC(=O)C1CCn2c(C(=O)c3ccccc3)ccc21 (racemic)	43
CCOC(=O)C(NC(=O)C1CCn2c(C(=O)c3ccccc3)ccc21)C(C)C (racemic)	49
CCOC(=O)C(CC(C)C)NC(=O)C1CCn2c(C(=O)c3ccccc3)ccc21 (racemic)	43
CCOC(=O)CCC(NC(=O)C1CCn2c(C(=O)c3ccccc3)ccc21)C(=O)OCC (racemic)	49

# input for lookup
Lookup: I am curious: what Activity value has been reported for CCOC(=O)C(Cc1c[nH]c2ccccc12)NC(=O)C1CCn2c(C(=O)c3ccccc3)ccc21 (racemic) ?
Found: 43

---

Task for the reader: assign each of the following molecules its reported Activity.
- Tested on: Rattus norvegicus
- RUN_DESCRIPTION: Antiinflammatory activity against carrageenan-induced paw edema in po dosed Wistar rat at dose equivalent to 2.5 mg/kg ketorolac after 6 hrs
- Type: functional
One number for each entry, in %.

Batch lookup, Activity per entry.
1. CCOC(=O)C(Cc1ccccc1)NC(=O)C1CCn2c(C(=O)c3ccccc3)ccc21 (racemic)
2. CCOC(=O)C(NC(=O)C1CCn2c(C(=O)c3ccccc3)ccc21)C(C)CC (racemic)
3. CCOC(=O)CNC(=O)C1CCn2c(C(=O)c3ccccc3)ccc21 (racemic)
4. CCOC(=O)CCNC(=O)C1CCn2c(C(=O)c3ccccc3)ccc21 (racemic)

Found:
1: 49; 2: 49; 3: 49; 4: 49

Lookup: Entry under review: CCOC(=O)CC(NC(=O)C1CCn2c(C(=O)c3ccccc3)ccc21)C(=O)OCC (racemic) . Reported Activity?
Found: 57.72

---

- RUN_DESCRIPTION: Metabolic stability in human plasma assessed as half life at 10 mg by HPLC
- Type: ADME, cell-free
VALUE_KIND: half-life (min)
Numbers only, in min.

Example compounds with recorded half-life:
COMPOUND	VALUE_KIND	READOUT_UNITS	TEST_RESULT
CCOC(=O)C(Cc1ccccc1)NC(=O)C1CCn2c(C(=O)c3ccccc3)ccc21 (racemic)	half-life	min	27
CCOC(=O)C(Cc1c[nH]c2ccccc12)NC(=O)C1CCn2c(C(=O)c3ccccc3)ccc21 (racemic)	half-life	min	49.5
CCOC(=O)C(NC(=O)C1CCn2c(C(=O)c3ccccc3)ccc21)C(C)C (racemic)	half-life	min	39
CCOC(=O)CNC(=O)C1CCn2c(C(=O)c3ccccc3)ccc21 (racemic)	half-life	min	39
CCOC(=O)C(C)NC(=O)C1CCn2c(C(=O)c3ccccc3)ccc21 (racemic)	half-life	min	59.2

Hi! Can you tell me half-life for each of these compounds?
1. CCOC(=O)CC(NC(=O)C1CCn2c(C(=O)c3ccccc3)ccc21)C(=O)OCC (racemic)
2. CCOC(=O)CCC(NC(=O)C1CCn2c(C(=O)c3ccccc3)ccc21)C(=O)OCC (racemic)
3. CCOC(=O)CCNC(=O)C1CCn2c(C(=O)c3ccccc3)ccc21 (racemic)

Found:
1. 27
2. 27
3. 52.9

Would you be so kind as to report half-life for each listed record?
1. CCOC(=O)C(CC(C)C)NC(=O)C1CCn2c(C(=O)c3ccccc3)ccc21 (racemic)
2. CCOC(=O)C(NC(=O)C1CCn2c(C(=O)c3ccccc3)ccc21)C(C)CC (racemic)

Found:
1. 61.1
2. 39

All values here come from ChEMBL document CHEMBL1154430.
